The reported numbers originate from patent US6500417.

Recorded measurements of REL. SPEC. BIOLOGICAL ACTIVITY (DNA synthesis of AML193 cells), one per entry
- target under test: IL-3 receptor (human, UniProt P26951 19-378; P32927 17-897)
- Sequence (P26951 19-378, chain 1 of 2): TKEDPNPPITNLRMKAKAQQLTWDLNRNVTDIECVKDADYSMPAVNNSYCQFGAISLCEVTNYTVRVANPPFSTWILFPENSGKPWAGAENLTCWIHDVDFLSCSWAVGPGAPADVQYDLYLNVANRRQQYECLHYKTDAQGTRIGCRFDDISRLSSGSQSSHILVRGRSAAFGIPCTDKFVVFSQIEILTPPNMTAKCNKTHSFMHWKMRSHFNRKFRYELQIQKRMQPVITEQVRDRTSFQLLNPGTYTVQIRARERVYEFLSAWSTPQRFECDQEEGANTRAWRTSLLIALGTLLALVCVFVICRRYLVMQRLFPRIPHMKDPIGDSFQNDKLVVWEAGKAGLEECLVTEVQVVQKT
- Sequence (P32927 17-897, chain 2 of 2): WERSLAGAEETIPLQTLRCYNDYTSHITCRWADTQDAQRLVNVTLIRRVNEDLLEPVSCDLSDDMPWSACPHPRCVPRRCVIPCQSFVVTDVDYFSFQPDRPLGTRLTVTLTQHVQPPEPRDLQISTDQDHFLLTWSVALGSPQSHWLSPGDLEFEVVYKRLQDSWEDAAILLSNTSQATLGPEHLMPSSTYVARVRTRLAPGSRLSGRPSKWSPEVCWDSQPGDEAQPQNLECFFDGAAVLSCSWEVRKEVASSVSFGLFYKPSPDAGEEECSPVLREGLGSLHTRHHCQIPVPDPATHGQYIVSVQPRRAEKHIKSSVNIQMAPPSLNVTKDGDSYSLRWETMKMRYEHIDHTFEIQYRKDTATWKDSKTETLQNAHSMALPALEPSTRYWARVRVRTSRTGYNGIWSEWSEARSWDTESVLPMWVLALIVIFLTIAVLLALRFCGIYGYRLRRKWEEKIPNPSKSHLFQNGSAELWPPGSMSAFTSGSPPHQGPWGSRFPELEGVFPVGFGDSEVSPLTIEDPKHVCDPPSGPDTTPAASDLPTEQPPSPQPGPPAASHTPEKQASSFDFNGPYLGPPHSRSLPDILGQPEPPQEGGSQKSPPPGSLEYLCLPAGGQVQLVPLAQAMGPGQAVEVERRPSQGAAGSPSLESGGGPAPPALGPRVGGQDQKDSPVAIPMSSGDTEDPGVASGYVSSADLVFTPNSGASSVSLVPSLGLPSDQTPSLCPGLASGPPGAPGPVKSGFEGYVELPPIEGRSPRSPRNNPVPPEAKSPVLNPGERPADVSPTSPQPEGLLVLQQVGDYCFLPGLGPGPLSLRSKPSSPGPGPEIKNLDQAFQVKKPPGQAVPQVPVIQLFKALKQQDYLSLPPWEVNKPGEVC
- assay: cell-based or functional assay

>  <binder>
hIL-3 deletion mutant 934 (deletion 47-54) (ligand, not shown: heterologous N-terminal leader of the E. coli fusion (pGB/IL-336: 12 aa; pGB/IL-339: 15 aa)) APMTQTTPLKTSWVNCSNMIDEIITHLKQPPLPLLDFNNLNGEDQDRPNLEAFNRAVKSLQNASAIESILKNLLPCLPLATAAPTRHPIHIKDGDWNEFRRKLTFYLKTLENAQAQQTTLSLAIF

>  <reported result>
7.3e-05 relative to reference IL-3

$$$$
>  <binder>
reference IL-3 preparation (B. licheniformis, full-length IL-3 cDNA in pGB/IL-322) (ligand, radiolabeled with the Bolton-Hunter reagent when used as tracer) APMTQTTPLKTSWVNCSNMIDEIITHLKQPPLPLLDFNNLNGEDQDILMENNLRRPNLEAFNRAVKSLQNASAIESILKNLLPCLPLATAAPTRHPIHIKDGDWNEFRRKLTFYLKTLENAQAQQTTLSLAIF

>  <reported result>
1 relative to reference IL-3

$$$$
>  <binder>
hIL-3 deletion mutant 810 (deletion 20-30) (ligand, also called 4810; not shown: heterologous N-terminal leader of the E. coli fusion (pGB/IL-336: 12 aa; pGB/IL-339: 15 aa)) APMTQTTPLKTSWVNCSNMPLPLLDFNNLNGEDQDILMENNLRRPNLEAFNRAVKSLQNASAIESILKNLLPCLPLATAAPTRHPIHIKDGDWNEFRRKLTFYLKTLENAQAQQTTLSLAIF

>  <reported result>
0.0021 relative to reference IL-3

$$$$
>  <binder>
pGB/IL-336 IL-3 fusion protein (ligand) MTMITNSRGSVDAPMTQTTPLKTSWVNCSNMIDEIITHLKQPPLPLLDFNNLNGEDQDILMENNLRRPNLEAFNRAVKSLQNASAIESILKNLLPCLPLATAAPTRHPIHIKDGDWNEFRRKLTFYLKTLENAQAQQTTLSLAIF

>  <reported result>
0.79 relative to reference IL-3

$$$$
>  <binder>
hIL-3 substitution mutant 1493 (Phe113Tyr114→Ala113Thr114) (ligand, also called 113FY → AT; not shown: heterologous N-terminal leader of the E. coli fusion (pGB/IL-336: 12 aa; pGB/IL-339: 15 aa)) APMTQTTPLKTSWVNCSNMIDEIITHLKQPPLPLLDFNNLNGEDQDILMENNLRRPNLEAFNRAVKSLQNASAIESILKNLLPCLPLATAAPTRHPIHIKDGDWNEFRRKLTATLKTLENAQAQQTTLSLAIF

>  <reported result>
< 1.2e-05 relative to reference IL-3

$$$$

For reference, reported REL. SPEC. BIOLOGICAL ACTIVITY (DNA synthesis of AML193 cells) for hIL-3 deletion mutant 933 (deletion 29-37) (ligand, expressed in Bacillus, lacks a leader) APMTQTTPLKTSWVNCSNMIDEIITHLKNNLNGEDQDILMENNLRRPNLEAFNRAVKSLQNASAIESILKNLLPCLPLATAAPTRHPIHIKDGDWNEFRRKLTFYLKTLENAQAQQTTLSLAIF stands at 0.0057 relative to reference IL-3

Reported REL. SPEC. BIOLOGICAL ACTIVITY (DNA synthesis of AML193 cells) of hIL-3 deletion mutant 936 (deletion 76-83) (ligand, not shown: heterologous N-terminal leader of the E. coli fusion (pGB/IL-336: 12 aa; pGB/IL-339: 15 aa)) APMTQTTPLKTSWVNCSNMIDEIITHLKQPPLPLLDFNNLNGEDQDILMENNLRRPNLEAFNRAVKSLQNASAIECLPLATAAPTRHPIHIKDGDWNEFRRKLTFYLKTLENAQAQQTTLSLAIF : 6.4e-06 relative to reference IL-3

Noted for hIL-3 double cysteine mutant 9045 (Cys16Cys84→Ala16Ala84) (ligand, also called 16/84C → A; not shown: heterologous N-terminal leader of the E. coli fusion (pGB/IL-336: 12 aa; pGB/IL-339: 15 aa)) APMTQTTPLKTSWVNASNMIDEIITHLKQPPLPLLDFNNLNGEDQDILMENNLRRPNLEAFNRAVKSLQNASAIESILKNLLPALPLATAAPTRHPIHIKDGDWNEFRRKLTFYLKTLENAQAQQTTLSLAIF : its REL. SPEC. BIOLOGICAL ACTIVITY (DNA synthesis of AML193 cells) reads 0.00031 relative to reference IL-3

The reported REL. SPEC. BIOLOGICAL ACTIVITY (DNA synthesis of AML193 cells) of the binder hIL-3 deletion mutant 812 (deletion 54-61) (ligand, not shown: heterologous N-terminal leader of the E. coli fusion (pGB/IL-336: 12 aa; pGB/IL-339: 15 aa)) APMTQTTPLKTSWVNCSNMIDEIITHLKQPPLPLLDFNNLNGEDQDILMENNLNRAVKSLQNASAIESILKNLLPCLPLATAAPTRHPIHIKDGDWNEFRRKLTFYLKTLENAQAQQTTLSLAIF was 5.3e-05 relative to reference IL-3

The recorded REL. SPEC. BIOLOGICAL ACTIVITY (DNA synthesis of AML193 cells) for hIL-3 combination deletion mutant X (deletions 1-14/120-133) (ligand, expressed in Bacillus, lacks a leader) NCSNMIDEIITHLKQPPLPLLDFNNLNGEDQDILMENNLRRPNLEAFNRAVKSLQNASAIESILKNLLPCLPLATAAPTRHPIHIKDGDWNEFRRKLTFYLKTLE is 0.23 relative to reference IL-3

The reported REL. SPEC. BIOLOGICAL ACTIVITY (DNA synthesis of AML193 cells) of the binder hIL-3 combination deletion mutant Z (deletions 1-14/116-133) (ligand, expressed in Bacillus, lacks a leader) NCSNMIDEIITHLKQPPLPLLDFNNLNGEDQDILMENNLRRPNLEAFNRAVKSLQNASAIESILKNLLPCLPLATAAPTRHPIHIKDGDWNEFRRKLTFYL was 0.11 relative to reference IL-3

Value of measured REL. SPEC. BIOLOGICAL ACTIVITY (DNA synthesis of AML193 cells) for the entry hIL-3 deletion mutant 938 (deletion 103-111) (ligand, not shown: heterologous N-terminal leader of the E. coli fusion (pGB/IL-336: 12 aa; pGB/IL-339: 15 aa)) APMTQTTPLKTSWVNCSNMIDEIITHLKQPPLPLLDFNNLNGEDQDILMENNLRRPNLEAFNRAVKSLQNASAIESILKNLLPCLPLATAAPTRHPIHIKDGTFYLKTLENAQAQQTTLSLAIF : 6.6e-05 relative to reference IL-3

So for hIL-3 substitution mutant 1487B (Glu75→Arg75) (ligand, also called 75E → R; not shown: heterologous N-terminal leader of the E. coli fusion (pGB/IL-336: 12 aa; pGB/IL-339: 15 aa)) APMTQTTPLKTSWVNCSNMIDEIITHLKQPPLPLLDFNNLNGEDQDILMENNLRRPNLEAFNRAVKSLQNASAIRSILKNLLPCLPLATAAPTRHPIHIKDGDWNEFRRKLTFYLKTLENAQAQQTTLSLAIF , the logged REL. SPEC. BIOLOGICAL ACTIVITY (DNA synthesis of AML193 cells) turned out to be 0.0086 relative to reference IL-3

REL. SPEC. BIOLOGICAL ACTIVITY (DNA synthesis of AML193 cells) recorded for this binder, hIL-3 substitution mutant 1480 (Asp36→Arg36) (ligand, also called 36D→R; not shown: heterologous N-terminal leader of the E. coli fusion (pGB/IL-336: 12 aa; pGB/IL-339: 15 aa)) APMTQTTPLKTSWVNCSNMIDEIITHLKQPPLPLLRFNNLNGEDQDILMENNLRRPNLEAFNRAVKSLQNASAIESILKNLLPCLPLATAAPTRHPIHIKDGDWNEFRRKLTFYLKTLENAQAQQTTLSLAIF , is 0.0031 relative to reference IL-3

The binder hIL-3 deletion mutant 935 (deletion 60-70) (ligand, not shown: heterologous N-terminal leader of the E. coli fusion (pGB/IL-336: 12 aa; pGB/IL-339: 15 aa)) APMTQTTPLKTSWVNCSNMIDEIITHLKQPPLPLLDFNNLNGEDQDILMENNLRRPNLEASAIESILKNLLPCLPLATAAPTRHPIHIKDGDWNEFRRKLTFYLKTLENAQAQQTTLSLAIF showed REL. SPEC. BIOLOGICAL ACTIVITY (DNA synthesis of AML193 cells) equal to 1.2e-05 relative to reference IL-3
